Data provenance: patent US9963448B2

- tested.target: mPAD4 (Mus musculus)
- Sequence (Q9Z183 whole entry): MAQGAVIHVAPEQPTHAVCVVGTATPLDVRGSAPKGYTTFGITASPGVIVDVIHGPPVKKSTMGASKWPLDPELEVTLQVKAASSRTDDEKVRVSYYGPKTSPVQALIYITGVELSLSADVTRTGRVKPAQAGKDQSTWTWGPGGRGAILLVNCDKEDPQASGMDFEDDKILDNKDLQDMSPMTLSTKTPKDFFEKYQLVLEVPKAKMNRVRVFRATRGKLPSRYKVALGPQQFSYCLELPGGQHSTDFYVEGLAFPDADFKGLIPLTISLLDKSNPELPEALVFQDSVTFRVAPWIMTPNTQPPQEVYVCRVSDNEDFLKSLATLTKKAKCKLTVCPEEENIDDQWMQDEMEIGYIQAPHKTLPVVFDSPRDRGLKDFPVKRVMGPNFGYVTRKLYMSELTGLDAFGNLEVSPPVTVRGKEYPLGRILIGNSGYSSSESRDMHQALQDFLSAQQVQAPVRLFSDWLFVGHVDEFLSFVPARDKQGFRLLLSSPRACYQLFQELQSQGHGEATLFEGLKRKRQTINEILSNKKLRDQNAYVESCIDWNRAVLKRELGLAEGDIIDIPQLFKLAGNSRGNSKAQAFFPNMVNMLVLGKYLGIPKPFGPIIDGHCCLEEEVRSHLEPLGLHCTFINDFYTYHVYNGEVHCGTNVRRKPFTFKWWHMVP
- assay.procedure: mPAD4 RFMS PAD4 inhibition assay
- Format: biochemical
- conditions.used: mPAD4, RFMS readout; read-out: mPAD4 RFMS IC50

| compound | tested.target | IC50 |
| --- | --- | --- |
| COc1cc(C(=O)N2CC(O)(C3CCCCN3)C2)cc2nc(-c3cc4cccnc4n3CC3CC3)n(C)c12 (racemic) [Compound I-74] | mPAD4 (Mus musculus) | > 10 µM |
| COc1cc(C(=O)N2C[C@H]3CC[C@@H]2[C@@H]3N)cc2nc(-c3cc4cccnc4n3CC3CC3)n(CC3CCOC3)c12 (stereo partly shown) [Compound I-217] | mPAD4 (Mus musculus) | < 1 µM |
| CCn1c(-c2nc3cc(C(=O)N4C[C@H]5CC[C@@H]4[C@@H]5N)ccc3n2CCOC)cc2cccnc21 [Compound I-186] | mPAD4 (Mus musculus) | > 10 µM |
| Cn1c(-c2cc3cccnc3n2CC2CC2)nc2cc(C(=O)N3CC[C@@H]4CCN[C@@H]4C3)ccc21 [Compound I-18] | mPAD4 (Mus musculus) | > 10 µM |

----------
- tested.target: UniProt:Q9UM07
- assay.procedure: hPAD4 RFMS (RapidFire mass spectrometry) PAD4 inhibition assay
- Type: biochemical
- conditions.used: hPAD4 enzyme, RFMS readout; pIC50=−log(IC50); read-out: hPAD4 RFMS pIC50 (converted)
Counter-ions that a name gives are not always drawn.
As shown below, each of these compounds has a reported IC50 value.

| compound | IC50 |
| --- | --- |
| CCn1c(-c2cc3cccnc3n2CC2CC2)nc2cc(C(=O)N3C[C@@H](N)C[C@H](F)C3)cc(OC)c21 | 1000 to 10000 nM |
| Cn1c(-c2cc3cccnc3n2CC2CC2)nc2cc(C(=O)N3CC[C@H]4CCN[C@H]4C3)cc(OC(F)F)c21 (single isomer, unassigned) [Compound I-24, hydrochloride] | 10000 to 100000 nM |
| CCn1c(-c2nc3cc(C(=O)N4C[C@H]5CC[C@@H]4[C@@H]5N)cc(OC)c3n2C)cc2ccc(OC(F)F)nc21 | < 1000 nM |
| COc1cc(C(=O)N2CC[C@@H](OC)[C@@H](N)C2)cc2nc(-c3cc4cccnc4n3CC3CC3)n(C)c12 | < 1000 nM |
| CCn1c(-c2nc3cc(C(=O)N4C[C@H]5CC[C@@H]4[C@@H]5N)cc(OC)c3n2CCOC)cc2cccnc21 | < 1000 nM |
| COc1cc(C(=O)N2C[C@H]3CCC2[C@H]3N)cc2nc(-c3cc4ccc(/C=C/C5CC5)cc4n3CC3CC3)n(C)c12 | < 1000 nM |

----------
- tested.target: hPAD4 (Homo sapiens, UniProt Q9UM07)
- Sequence (Q9UM07 whole entry): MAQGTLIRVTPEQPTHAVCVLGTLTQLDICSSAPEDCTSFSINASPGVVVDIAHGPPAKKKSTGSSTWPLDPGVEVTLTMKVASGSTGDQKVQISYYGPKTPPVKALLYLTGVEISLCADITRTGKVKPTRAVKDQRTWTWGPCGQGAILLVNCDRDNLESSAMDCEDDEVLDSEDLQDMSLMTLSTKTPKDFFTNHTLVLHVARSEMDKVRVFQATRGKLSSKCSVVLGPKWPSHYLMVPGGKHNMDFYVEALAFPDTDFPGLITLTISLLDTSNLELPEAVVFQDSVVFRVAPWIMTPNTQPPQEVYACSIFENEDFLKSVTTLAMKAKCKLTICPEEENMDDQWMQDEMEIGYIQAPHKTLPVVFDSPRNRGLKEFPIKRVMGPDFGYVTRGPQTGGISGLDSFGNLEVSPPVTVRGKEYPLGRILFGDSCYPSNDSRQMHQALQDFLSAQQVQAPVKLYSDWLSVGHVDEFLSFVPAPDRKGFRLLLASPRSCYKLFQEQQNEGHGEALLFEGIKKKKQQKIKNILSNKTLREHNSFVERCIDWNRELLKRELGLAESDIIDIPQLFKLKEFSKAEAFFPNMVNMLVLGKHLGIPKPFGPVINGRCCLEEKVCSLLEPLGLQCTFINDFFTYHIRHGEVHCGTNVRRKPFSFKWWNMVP
- assay.procedure: hPAD4 RFMS (RapidFire mass spectrometry) PAD4 inhibition assay;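 further: grade E means pIC50 at most 4 and F means pIC50 4.0 to 5.0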
- Assay type: biochemical
- conditions.used: hPAD4 enzyme, RFMS readout; pIC50=−log(IC50); read-out: hPAD4 RFMS pIC50 (converted)
Catalogue of IC50 readings, one per entry.
endpoint: IC50

| compound | tested.target | result |
| --- | --- | --- |
| COc1cc(C(=O)N2CCC(F)C(N)C2)cc2nc(-c3cc4cccnc4n3CC3CC3)n(C)c12 (centres unmarked) [Compound I-56] | hPAD4 (Homo sapiens, UniProt Q9UM07) | 1000 to 10000 nM |
| COc1cc(C(=O)N2C[C@H]3CC[C@@H]2[C@@H]3N)cc2nc(-c3cc4cccnc4n3CC3CC3)n([C@H]3C[C@H](F)C3)c12 [Compound I-224] | hPAD4 (Homo sapiens, UniProt Q9UM07) | < 1000 nM |
| CCn1c(-c2cc3ccc(OC)nc3n2CC2CC2)nc2cc(C(=O)N3C[C@@H](N)C[C@H](F)C3)cc(OC)c21 [Compound I-92] | hPAD4 (Homo sapiens, UniProt Q9UM07) | 1000 to 10000 nM |
| Cn1c(-c2cc3cccnc3n2CC2CC2)nc2cc(C(=O)N3C[C@H](N)C[C@H](F)C3)ccc21 [Compound I-67] | hPAD4 (Homo sapiens, UniProt Q9UM07) | 10000 to 100000 nM |
| COc1cc(C(=O)N2CCC[C@@H](N)C2)cc2nc(-c3cc4cccnc4n3CC3CC3)n(CC3CC(C)(O)C3)c12 (some centres unmarked) [Compound I-114] | hPAD4 (Homo sapiens, UniProt Q9UM07) | < 1000 nM |
| CCn1c(-c2nc3cc(C(=O)N4CCC[C@@H](N)C4)cc(OC)c3n2CC2CCOCC2)cc2cccnc21 [Compound I-174] | hPAD4 (Homo sapiens, UniProt Q9UM07) | 1000 to 10000 nM |
| COc1cc(C(=O)N2CC[C@@H](F)[C@@H](N)C2)cc2nc(-c3cc4cccnc4n3CC3CC3)n(C)c12 [Compound I-91] | hPAD4 (Homo sapiens, UniProt Q9UM07) | < 1000 nM |
| COc1cc(C(=O)N2C[C@H]3CC[C@@H]2[C@@H]3N)cc2nc(-c3cc4ccc(N(C)CCC5CC5)cc4n3CC3CC3)n(C)c12 [Compound I-376] | hPAD4 (Homo sapiens, UniProt Q9UM07) | < 1000 nM |
| COc1cc(C(=O)N2CCC3CCNC3C2)cc2nc(-c3cc4cncnc4n3CC3CC3)n(C)c12 (centres unmarked) [Compound I-15] | hPAD4 (Homo sapiens, UniProt Q9UM07) | 1000 to 10000 nM |
| COc1cc(C(=O)N2CC(O)(C3(N)CCCC3)C2)cc2nc(-c3cc4cccnc4n3CC3CC3)n(C)c12 [Compound I-84] | hPAD4 (Homo sapiens, UniProt Q9UM07) | 10000 to 100000 nM |
| Cn1c(-c2cc3ccccc3n2CC2CC2)nc2cc(C(=O)N3CC[C@H]4CCN[C@H]4C3)ccc21 [Compound I-7] | hPAD4 (Homo sapiens, UniProt Q9UM07) | < 1000 nM |
| COc1cc(C(=O)N2C[C@H]3CC[C@@H]2[C@@H]3N)cc2nc(-c3cc4cccnc4n3CC3CC3)n(CCS(C)(=O)=O)c12 [Compound I-214] | hPAD4 (Homo sapiens, UniProt Q9UM07) | < 1000 nM |
| COc1cc(C(=O)N2C[C@H]3CC[C@@H]2[C@@H]3N)cc2nc(-c3cc4ccc(C#N)cc4n3CC3CC3)n(C)c12 [Compound I-371] | hPAD4 (Homo sapiens, UniProt Q9UM07) | < 1000 nM |
| COc1cc(C(=O)N2CC3(CCOC[C@@H]3N)C2)cc2nc(-c3cc4cccnc4n3CC3CC3)n(C)c12 [Compound I-95] | hPAD4 (Homo sapiens, UniProt Q9UM07) | 10000 to 100000 nM |

----------
- tested.target: mPAD4 (Mus musculus)
- assay.procedure: mPAD4 RFMS PAD4 inhibition assay;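 on mPAD4 RFMS pIC50: grade E means pIC50 at most 4 and F means pIC50 4.0 to 5.0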
- Assay type: biochemical
- conditions.used: mPAD4, RFMS readout; pIC50=−log(IC50); read-out: mPAD4 RFMS pIC50 (converted)

| compound | IC50 |
| --- | --- |
| COc1cc(C(=O)N2C[C@H]3CC[C@@H]2[C@@H]3N)cc2nc(-c3cc4ccc(C(C)(C)O)nc4n3CC3CC3)n(C)c12 [Compound I-210] | < 1 µM |
| Cn1c(-c2cc3cncnc3n2CC2CC2)nc2cc(C(=O)N3CCC4CCNC4C3)ccc21 (stereo not shown) [Compound I-9] | 10 to 100 µM |
| COc1cc(C(=O)N2C[C@@H]3COC[C@]3(CN)C2)cc2nc(-c3cc4cccnc4n3CC3CC3)n(C)c12 [Compound I-126] | 10 to 100 µM |
| COc1cc(C(=O)N2CC(O)(C3(N)CCCC3)C2)cc2nc(-c3cc4cccnc4n3CC3CC3)n(C)c12 [Compound I-84] | 10 to 100 µM |
| COc1cc(C(=O)N2C[C@H]3CC[C@@H]2[C@@H]3N)cc2nc(-c3cc4cccnc4n3CC3CC3)n(CCSC)c12 [Compound I-235] | < 1 µM |
| COc1cc(C(=O)N2CCC[C@@H](N)C2)cc2nc(-c3cc4cc(C#N)cnc4n3CC3CC3)n(C)c12 [Compound I-132] | 1 to 10 µM |
| COc1cc(C(=O)N2C[C@H]3CC[C@@H]2[C@@H]3N)cc2nc(-c3cc4cccnc4n3CC3CC3)n([C@H]3C[C@@H](OC)C3)c12 [Compound I-219] | 1 to 10 µM |

----------
Overview of recorded IC50 for various molecules
- tested.target: hPAD4 (Homo sapiens, UniProt Q9UM07)
- assay.procedure: hPAD4 RFMS (RapidFire mass spectrometry) PAD4 inhibition assay;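 further: grade E means pIC50 at most 4 and F means pIC50 4.0 to 5.0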
- Assay type: biochemical
- conditions.used: hPAD4 enzyme, RFMS readout; pIC50=−log(IC50); read-out: hPAD4 RFMS pIC50 (converted)
- Experimental: Compounds of the present invention were assayed as inhibitors of PAD4 using the assay protocol described below. Compound stock solutions were stored at RT. […] Final assay conditions were as follows: Total incubation time: 65 mins at 37° C. Stop solution: 40 μl 5% TCA in ACN The compound numbers correspond to the compound numbers in Table 1. […] The term pIC50=−log(IC50). […] “NA” stands for “not assayed.”
Counter-ions that a name gives are not always drawn.

| molecule | IC50 |
| --- | --- |
| Cc1cc2c(cc1C(=O)N1CCC[C@@H](N)C1)nc(-c1cc3cccnc3n1CC1CC1)n2C [Compound I-103, hydrochloride] | 10 to 100 µM |
| COc1cc(C(=O)N2C[C@H]3CC[C@@H]2[C@@H]3N)cc2nc(-c3cc4ccc(NCCC5CC5)cc4n3CC3CC3)n(C)c12 [Compound I-375] | < 1 µM |
| COc1ccc2cc(-c3nc4cc(C(=O)N5C[C@H](N)CC[C@@H]5C)ccc4n3C)n(CC3CC3)c2n1 [Compound I-352] | < 1 µM |
| CCn1c(-c2nc3cc(C(=O)N4CCC[C@@H](N)C4)cc(OC)c3n2C)cc2ccc(OC(F)F)nc21 [Compound I-201] | < 1 µM |
| CCn1c(-c2cc3cccnc3n2CC2CC2)nc2cc(C(=O)N3CC[C@H]4CCN[C@H]4C3)cc(OC)c21 [Compound I-22] | 10 to 100 µM |
| COc1cc(C(=O)N2C[C@H]3C[C@H](O)[C@@H]2[C@@H]3N)cc2nc(-c3cc4cccnc4n3CC3CC3)n(C)c12 [Compound I-162] | < 1 µM |
| COc1cc(C(=O)N2C[C@@H]3COC[C@]3(CN)C2)cc2nc(-c3cc4cccnc4n3CC3CC3)n(C)c12 [Compound I-126] | 10 to 100 µM |
| COc1cc(C(=O)N2CC3CCC2C(N)C3)cc2nc(-c3cc4cccnc4n3CC3CC3)n(C)c12 (centres unmarked) [Compound I-115] | < 1 µM |
| Cn1c(-c2cc3cccnc3n2CC2CC2)nc2cc(C(=O)N3CC[C@H](F)[C@@H](N)C3)ccc21 [Compound I-54] | 1 to 10 µM |
| COc1cc(C(=O)N2CCC[C@@H](N)C2)cc2nc(-c3cc4cccnc4n3[C@@H](C)C3CC3)n(C)c12 [Compound I-102] | 1 to 10 µM |
| COc1cc(C(=O)N2CC[C@H](F)[C@H](N)C2)cc2nc(-c3cc4cccnc4n3CC3CC3)n(C)c12 [Compound I-90] | 1 to 10 µM |
| Cn1c(-c2cc3cccnc3n2CC2CC2)nc2cc(C(=O)N3CCC[C@@H](N)C3)c(F)cc21 [Compound I-172] | 1 to 10 µM |
| COC1CCN(C(=O)c2ccc3c(c2)nc(-c2cc4cccnc4n2CC2CC2)n3C)CC1N (racemic) [Compound I-62] | 1 to 10 µM |
| COc1cc(C(=O)N2C[C@H]3CC4OC(=O)N[C@H]3[C@@H]42)cc2nc(-c3cc4cccnc4n3CC3CC3)n(C)c12 [Compound I-187] | 10 to 100 µM |
